Origin of measurements: paper PMC10716780

Assay target: human P450 11A1 (Homo sapiens)
Sequence (P05108 41-521 limits assumed): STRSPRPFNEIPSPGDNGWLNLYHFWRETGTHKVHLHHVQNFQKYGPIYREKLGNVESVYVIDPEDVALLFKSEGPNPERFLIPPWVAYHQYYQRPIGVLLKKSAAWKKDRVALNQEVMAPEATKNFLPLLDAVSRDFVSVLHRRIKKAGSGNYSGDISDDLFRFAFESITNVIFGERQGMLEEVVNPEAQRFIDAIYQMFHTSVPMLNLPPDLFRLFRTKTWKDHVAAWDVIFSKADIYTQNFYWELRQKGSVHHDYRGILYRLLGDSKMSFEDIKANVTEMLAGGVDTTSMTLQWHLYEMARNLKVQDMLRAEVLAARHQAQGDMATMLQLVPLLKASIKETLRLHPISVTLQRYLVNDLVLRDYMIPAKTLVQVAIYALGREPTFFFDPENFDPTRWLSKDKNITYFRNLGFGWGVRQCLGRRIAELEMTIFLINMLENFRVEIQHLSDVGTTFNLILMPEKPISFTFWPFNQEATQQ
Sequence (P00257 59-186 partner): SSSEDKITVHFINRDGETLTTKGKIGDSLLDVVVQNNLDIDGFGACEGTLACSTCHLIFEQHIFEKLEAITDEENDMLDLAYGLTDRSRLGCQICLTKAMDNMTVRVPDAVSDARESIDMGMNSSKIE
Assay info: Steady-state conversion of sterols to pregnenolone by reconstituted P450 11A1 (UPLC-MS of dansyl hydrazone)
Format: biochemical
Set-up: M A S T R S P R P F N E I P S P G D N; Met-Ala (N-terminal start residues in place of the transit peptide and Ile40) (N); made in house; host or cells: E. coli (P450 11A1 in C41(DE3); Adx and AdR in E. coli)
Measurement conditions: 0.25 μM P450, 0.5 μM AdR, 10 μM Adx, 37 °C
Procedure: Accordingly, all steady-state assays were done, unless otherwise noted, with a P450 11A1:Adx:AdR molar ratio of 1:40:2 (Fig. 2, that is, 0.25 μM P450, 10 μM Adx, and 0.5 μM AdR), in the absence of added lipid or detergent, and with the addition of sterol substrates in HPCD (stock 45% w/v). […] Steroid extracts were subsequently derivatized with dansylhydrazine and analyzed as described previously ([42]). […]
Measured quantity: kcat (conversion of sterol to pregnenolone) (s⁻¹)
Response body: numeric value in s⁻¹, unit text excluded.

[in] Any idea what its kcat (conversion of sterol to pregnenolone) is? The compound is CC(C)CC[C@@H](O)[C@](C)(O)[C@H]1CC[C@H]2[C@@H]3CC=C4C[C@@H](O)CC[C@]4(C)[C@H]3CC[C@]12C [20R,22R-(OH)2 Chol, (20R,22R)-Cholest-5-ene-3β,20,22-triol]
[out] 0.23

[in] What about CC(C)CC[C@@H](O)[C@@H](C)[C@H]1CC[C@H]2[C@@H]3CC=C4C[C@@H](O)CC[C@]4(C)[C@H]3CC[C@]12C [22R-OH Chol, 22R-hydroxycholesterol] ?
[out] 0.15

[in] What about CC(C)CCC[C@@H](C)[C@H]1CC[C@H]2[C@@H]3CC=C4C[C@@H](O)CC[C@]4(C)[C@H]3CC[C@]12C ?
[out] 0.12

[in] What about CC(C)CC[C@H](O)[C@](C)(O)[C@H]1CC[C@H]2[C@@H]3CC=C4C[C@@H](O)CC[C@]4(C)[C@H]3CC[C@]12C [20R,22S-(OH)2 Chol, (20R,22S)-Cholest-5-ene 3β,20,22-triol] ?
[out] 0.083
